Values were extracted from PubChem BioAssay AID748.

molecular target: Bcl-2-like protein 10 (Homo sapiens) (UniProt Q9HD36); assay: displacers of TR3 peptide from Bcl-B, primary screen, selectivity assay for Bfl-1 inhibitor project, biochemical, fluorescence polarization, FITC-TR3 peptide (AID 748); conditions: FP displacement of FITC-TR3 peptide from Bcl-B; at 20 µM; active compounds read high;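 further: plate controls were wells without compound for no effect and wells lacking Bcl-B protein for full effect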
The whole screen tested about 96,000 compounds, of which about 100 (0.1%) were called active. The list comes from a sample in which actives are over-represented; it also holds close analogues and randomly drawn compounds. Results with a measured potency or affinity are listed apart.
MEASUREMENT_NAME: displacement (%)
// units = %; emit number, no label

# COMPOUND, MEASUREMENT_NAME, UNITS_SYMBOL, REPORTED
data = [
    ("CC(CC(=O)c1cccs1)CC(=O)c1cccs1", "displacement", "%", -2.6),
    ("O=C1CC(SC(=NCc2ccc3c(c2)OCO3)Nc2ccccc2)C(=O)N1c1ccccc1 (stereo unspecified)", "displacement", "%", 0.5),
    ("Cc1ccc(S(=O)(=O)NC(=O)c2cc(C)n(CCCN3CCOCC3)c2C)cc1", "displacement", "%", 8.5),
    ("CCCC(=O)Nc1cccc(-c2nc3cc(C)c(C)cc3o2)c1", "displacement", "%", -1.8),
    ("Cc1ccc(NS(=O)(=O)c2ccc(C(=O)N3CCN(c4ccccn4)CC3)cc2)cc1", "displacement", "%", 3.6),
]

Now examine the next entry.
Short answer for Cc1cc(=O)n2c3c(cccc13)CCC2 : displacement was -9.7

###

biological target: Bcl-2-like protein 10 (Homo sapiens); assay: displacers of TR3 peptide from Bcl-B, primary screen, selectivity assay for Bfl-1 inhibitor project, biochemical, fluorescence polarization, FITC-TR3 peptide (AID 748); settings: FP displacement of FITC-TR3 peptide from Bcl-B; at 20 µM; active compounds read high
Out of some 96,000 compounds screened, about 100 (0.1%) were called active. The sample holds actives, similar compounds and a random draw of the others, so the mix is not that of the screen. Entries with a potency or affinity are not part of this list.
MEASUREMENT_NAME: displacement (%)
// units = %; emit number, no label

Some molecules with known displacement results, for comparison:
# MOLECULE, UNITS_SYMBOL, REPORTED
data = [
    ("O=C(COC(=O)C12CC3CC(CC(C3)C1)C2)Nc1ncc(Cl)cc1Cl", "%", 31.8),
    ("CC(C(=O)OCC(=O)Nc1ncc(Cl)cc1Cl)N1C(=O)c2ccccc2C1=O (stereo not given)", "%", 21.3),
    ("O=C(CCc1nc2ccccc2s1)OCC(=O)N1CCN(C(=O)c2ccco2)CC1", "%", -8),
    ("O=C(COC(=O)CCCN1C(=O)c2ccccc2C1=O)Nc1ncc(Cl)cc1Cl", "%", 43.6),
]

Short answer for CC(=O)NC12CC3CC(C1)CC(C(=O)OCC(=O)Nc1ncc(Cl)cc1Cl)(C3)C2 : displacement was 40.7

###

biological target: Bcl-2-like protein 10 (Homo sapiens); assay: displacers of TR3 peptide from Bcl-B, primary screen, selectivity assay for Bfl-1 inhibitor project, biochemical, fluorescence polarization, FITC-TR3 peptide (AID 748); settings: FP displacement of FITC-TR3 peptide from Bcl-B; at 20 µM; active compounds read high
Screen size: about 96,000 compounds; about 100 (0.1%) were called active. For the sample, actives were picked, then their nearest neighbours and some compounds at random. Entries with a potency or affinity are not part of this list.
MEASUREMENT_NAME: displacement (%)
// units = %; emit number, no label

Some compounds with known displacement results, for comparison:
# SMILES_DATA, TESTED_TARGET, REPORTED
rows = [
    ("CC(C)OC(=O)C(NC(=O)c1ccccc1)=C1CCCCC1", "Bcl-2-like protein 10 (Homo sapiens)", -12.9),
    ("Cc1csc(NC(=O)CSc2nnc(Cn3c(=O)sc4ccccc43)n2-c2ccccc2)n1", "Bcl-2-like protein 10 (Homo sapiens)", -8.5),
    ("CCOc1ccccc1N(CC(=O)NC(C)(C)C)C(=O)Cn1nnc(-c2ccc(C)o2)n1", "Bcl-2-like protein 10 (Homo sapiens)", -3.4),
    ("CCCn1c(CN2CCN(C(=O)c3ccco3)CC2)nc2c1c(=O)n(C)c(=O)n2C", "Bcl-2-like protein 10 (Homo sapiens)", -3.6),
]

Now examine the next entry.
Short answer for COC(=O)c1oc2ccc(Br)cc2c1NC(=O)c1ccccc1 : displacement was -10.4

###

target: Bcl-2-like protein 10 (Homo sapiens) (UniProt Q9HD36); assay: displacers of TR3 peptide from Bcl-B, primary screen, selectivity assay for Bfl-1 inhibitor project, biochemical, fluorescence polarization, FITC-TR3 peptide (AID 748); details: FP displacement of FITC-TR3 peptide from Bcl-B; at 20 µM; active compounds read high;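 further: plate controls were wells without compound for no effect and wells lacking Bcl-B protein for full effect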
The whole screen tested about 96,000 compounds, of which about 100 (0.1%) were called active. This is one part of a sample in which actives are shown more often than they occur. Potency and affinity values are given separately.
The compounds listed here are annotated with their displacement.
// units = %; emit number, no label

# COMPOUND, displacement / %
records = [
    ("O=C1CC(=O)C(n2cncn2)C(c2c(F)cccc2Cl)C1 (stereo unspecified)", 1.3),
]

Short answer for CC(C)n1c(SCCCc2ccccc2)nc2c1c(=O)[nH]c(=O)n2C : displacement was -3.8

Short answer for Cc1ccc(-c2csc(N3N=C(c4ccccc4)/C(=C\c4ccc(N(C)C)cc4)C3=O)n2)cc1 : displacement was -1.8

###

target: Bcl-2-like protein 10 (Homo sapiens) (UniProt Q9HD36); test: displacers of TR3 peptide from Bcl-B, primary screen, selectivity assay for Bfl-1 inhibitor project, biochemical, fluorescence polarization, FITC-TR3 peptide (AID 748); conditions: FP displacement of FITC-TR3 peptide from Bcl-B; at 20 µM; active compounds read high;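 further: plate controls were wells without compound for no effect and wells lacking Bcl-B protein for full effect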
Hit rate of the full screen: of about 96,000 compounds, about 100 (0.1%) were called active. The sample holds actives, similar compounds and a random draw of the others, so the mix is not that of the screen. Entries with a potency or affinity are not part of this list.
The compounds listed here are annotated with their displacement.
// units = %; emit number, no label

Some compounds with known displacement results, for comparison:
# COMPOUND, UNITS_SYMBOL, displacement
records = [
    ("Clc1ccc2nc(CN3CCCCCC3)cn2c1", "%", -3.6),
    ("CCCCC(=O)NC1=NC(=O)C(C)(C)S1", "%", -8),
    ("Clc1ccc2nc(CN3CCCCC3)cn2c1", "%", 10.1),
    ("CC1CC(C)CN(C(=O)c2cc3c(s2)CCC3)C1 (stereo not given)", "%", 0.4),
    ("NC(=O)Cn1c(=O)n(CCCC(=O)NC2CCN(Cc3ccccc3)CC2)c(=O)c2ccccc21", "%", 4.2),
    ("COc1ccc2nc(COC(=O)c3ccco3)c(C(C)=O)[n+]([O-])c2c1", "%", 10.7),
    ("O=C(c1cc2c(s1)CCCCC2)N1CCN(c2ncccn2)CC1", "%", -2.1),
    ("O=C(CC1C(=O)OCN1C(=O)OCc1ccccc1)OCC(=O)c1ccccc1 (stereo not given)", "%", -0.3),
    ("CCOC(=O)c1cnc2cc3c(cn2c1=O)CCCC3", "%", 0),
]

Now examine the next entry.
Short answer for Cc1cc(=O)oc2ccc(OCC(=O)N3CCC(C)CC3)cc12 : displacement was -6.2

###

The molecules listed here are annotated with their displacement.
target: Bcl-2-like protein 10 (Homo sapiens); experiment: displacers of TR3 peptide from Bcl-B, primary screen, selectivity assay for Bfl-1 inhibitor project, biochemical, fluorescence polarization, FITC-TR3 peptide (AID 748); conditions: FP displacement of FITC-TR3 peptide from Bcl-B; at 20 µM; active compounds read high;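 further: plate controls were wells without compound for no effect and wells lacking Bcl-B protein for full effect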
Out of some 96,000 compounds screened, about 100 (0.1%) were called active. The sample holds actives, similar compounds and a random draw of the others, so the mix is not that of the screen. Entries with a potency or affinity are not part of this list.
// units = %; emit number, no label

Some molecules with known displacement results, for comparison:
# MOLECULE, TESTED_TARGET, displacement / %
rows = [
    ("c1ccc(-c2nn3c(Cn4nnc5ccccc54)nnc3s2)cc1", "Bcl-2-like protein 10 (Homo sapiens)", 0),
    ("c1ccc2c(c1)nnn2Cc1nnc2sc(-c3ccncc3)nn12", "Bcl-2-like protein 10 (Homo sapiens)", -19.6),
    ("Cc1cc(C)cc(OCC(=O)Nc2ccc(N3CCCC3)cc2)c1", "Bcl-2-like protein 10 (Homo sapiens)", 17.3),
    ("Cc1cc(C)c(C)c(S(=O)(=O)NCC(=O)O)c1C", "Bcl-2-like protein 10 (Homo sapiens)", 2.8),
    ("O=C(CNC(=O)c1ccco1)OCc1cccc(Cl)c1", "Bcl-2-like protein 10 (Homo sapiens)", -8.6),
]

Short answer for CCOc1ccc(C(=O)Nc2ccc(N3CCCC3)cc2)cc1 : displacement was 35.5

Short answer for CCCC(=O)N1CCN(c2ccc(NC(=O)c3ccc(OCC)c([N+](=O)[O-])c3)cc2)CC1 : displacement was -1.6

Short answer for Cc1ccccc1Oc1ccc(S(=O)(=O)NCCC(=O)O)cc1 : displacement was 0.5
